The reported numbers originate from patent US12698507B2.

target under test: Thermosynechococcus vulcanus NIES-2134 protoporphyrinogen IX oxidase CyPPO18 (SEQ ID NO: 3) variant V165S (MBP fusion) (Thermosynechococcus vestitus, UniProt Q8DLV2, V165S)
Sequence (Q8DLV2 entry or part of it V165S): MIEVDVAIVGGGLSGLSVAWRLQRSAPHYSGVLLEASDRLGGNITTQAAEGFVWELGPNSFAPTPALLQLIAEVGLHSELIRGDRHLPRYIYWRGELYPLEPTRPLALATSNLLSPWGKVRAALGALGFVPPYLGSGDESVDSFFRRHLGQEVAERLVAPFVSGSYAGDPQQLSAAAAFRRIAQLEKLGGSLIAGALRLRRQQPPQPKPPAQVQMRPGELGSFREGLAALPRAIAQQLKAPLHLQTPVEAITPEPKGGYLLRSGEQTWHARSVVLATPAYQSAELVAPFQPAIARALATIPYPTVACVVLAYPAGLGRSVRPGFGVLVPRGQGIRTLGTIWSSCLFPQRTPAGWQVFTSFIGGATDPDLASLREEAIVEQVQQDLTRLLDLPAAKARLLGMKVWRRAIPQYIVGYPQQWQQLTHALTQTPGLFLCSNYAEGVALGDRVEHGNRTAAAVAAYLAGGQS
assay protocol: PPO enzyme inhibition assay (IC50 for herbicides), CyPPO18 V165S fused to MBP
applied conditions: 50 μM protoporphyrinogen IX, pH 7.5, room temperature, 30 min
measurement label: IC50 (nM)
Expressed in nM, but write only the number.

Q) So what's the measured IC50 for this one? Cc1nn(-c2cc(CC(Cl)C(=O)O)c(Cl)cc2F)c(=O)n1C(F)F (centres unmarked) [Carfentrazone]
A) 2230

Q) So what's the measured IC50 for this one? CCOc1cc(Oc2ccc(C(F)(F)F)cc2Cl)ccc1[N+](=O)[O-] [Oxyfluorfen]
A) 1490
